B1: AMOTL2 peptide 66-81 (Angiomotin-like protein 2), 16-mer library wild type / TNKS ANK (TNKS 12 ANK repeats, residues 174-649) (parent)
chain 1: LQQATRQEPQGQEHQG
chain 2: TGVPAVSGALRELLEACRNGDVSRVKRLVDAANVNAKDMAGRKSSPLHFAAGFGRKDVVEHLLQMGANVHARDDGGLIPLHNACSFGHAEVVSLLLCQGADPNARDNWNYTPLHEAAIKGKIDVCIVLLQHGADPNIRNTDGKSALDLADPSAKAVLTGEYKKDELLEAARSGNEEKLMALLTPLNVNCHASDGRKSTPLHLAAGYNRVRIVQLLLQHGADVHAKDKGGLVPLHNACSYGHYEVTELLLKHGACVNAMDLWQFTPLHEAASKNRVEVCSLLLSHGADPTLVNCHGKSAVDMAPTPELRERLTYEFKGHSLLQAAREADLAKVKKTLALEIINFKQPQSHETALHCAVASLHPKRKQVTELLLRKGANVNEKNKDFMTPLHVAAERAHNDVMEVLHKHGAKMNALDTLGQTALHRAALAGHLQTCRLLLSYGSDPSIISLQGFTAAQMGNEAVQQILSESTPIRTSD

Variants of: B1
Assay: proteomic peptide phage display deep mutational scan (ProP-PD DMS): M13 P8 16-mer library selected against immobilised GST-tagged bait for four days (rounds), NGS of the eluted pools per day and pseudo-replica
Details: with TNKS ANK (TNKS 12 ANK repeats, residues 174-649); bait immobilised on MaxiSorp plates (10 µg), library pre-cleared on GST, 2 h binding at 4 °C, five washes; one round per day, days 1-4; value from days 2 and 3; keep out of graded; scale: average fractional NGS count over selection days 2 and 3
endpoint: screen value
Answers are plain numbers.

Some variants with recorded screen value:
sequence variant	screen value
chain 1 Q12D	0
chain 1 Q12E	4.24e-05
chain 1 E13T	1.94e-05
chain 1 Q3M	3.03e-05
chain 1 Q10P	6.1e-05
chain 1 P9S	0

Respectfully, I request screen value for each entry included below.
1. chain 1 E8I
2. chain 1 E8N
3. chain 1 Q12G

Result string:
["6.96e-05", 0.000167, "3.04e-05"]
